target: PI3K delta (Homo sapiens); construct: for the full-length p110-d subunit are generated and fused by overlapping PCR; p85(iSH2) fusion partner (same polypeptide; see partner chain) (N); Gly linker (N); His tag (C); Tn5 (Trichoplusia ni) or TiniPro insect cells; test: PI3K delta enzymatic assay (Kinase-Glo luminescence); conditions: Enzymatic Data
Sequence (O00329 with tags, fused parts or gaps limits assumed): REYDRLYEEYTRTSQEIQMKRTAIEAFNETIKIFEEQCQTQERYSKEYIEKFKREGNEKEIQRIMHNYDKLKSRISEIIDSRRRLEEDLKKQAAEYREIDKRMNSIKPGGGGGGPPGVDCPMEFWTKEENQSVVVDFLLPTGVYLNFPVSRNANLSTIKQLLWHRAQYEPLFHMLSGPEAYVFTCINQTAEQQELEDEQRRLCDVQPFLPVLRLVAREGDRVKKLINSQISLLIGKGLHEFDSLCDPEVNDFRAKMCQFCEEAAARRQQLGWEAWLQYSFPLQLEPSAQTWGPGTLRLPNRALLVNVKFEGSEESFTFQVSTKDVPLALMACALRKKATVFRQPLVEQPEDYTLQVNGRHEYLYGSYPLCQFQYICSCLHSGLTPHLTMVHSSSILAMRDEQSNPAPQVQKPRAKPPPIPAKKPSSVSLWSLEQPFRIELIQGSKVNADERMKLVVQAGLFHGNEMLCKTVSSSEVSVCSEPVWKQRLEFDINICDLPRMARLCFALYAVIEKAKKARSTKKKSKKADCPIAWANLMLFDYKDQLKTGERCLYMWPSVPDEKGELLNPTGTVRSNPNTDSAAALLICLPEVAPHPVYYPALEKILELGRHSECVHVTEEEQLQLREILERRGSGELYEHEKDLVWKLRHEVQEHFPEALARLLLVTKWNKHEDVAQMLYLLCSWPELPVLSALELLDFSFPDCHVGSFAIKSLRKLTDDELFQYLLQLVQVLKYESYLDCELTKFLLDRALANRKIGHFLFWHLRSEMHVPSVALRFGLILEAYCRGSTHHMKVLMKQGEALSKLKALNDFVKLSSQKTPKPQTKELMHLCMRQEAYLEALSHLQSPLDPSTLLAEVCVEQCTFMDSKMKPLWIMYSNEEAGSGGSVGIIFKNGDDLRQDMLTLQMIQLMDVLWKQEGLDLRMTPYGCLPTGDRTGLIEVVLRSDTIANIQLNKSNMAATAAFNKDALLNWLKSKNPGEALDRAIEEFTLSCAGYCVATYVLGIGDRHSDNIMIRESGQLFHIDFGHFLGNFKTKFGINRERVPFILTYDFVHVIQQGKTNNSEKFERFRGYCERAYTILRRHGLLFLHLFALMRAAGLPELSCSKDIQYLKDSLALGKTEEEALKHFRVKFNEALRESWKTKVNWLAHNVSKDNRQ
Property name: IC50

[[record]]
chemical_smiles = "COc1ccc(-c2ccc3nc(C)c(-c4ncccc4C)n3n2)cc1OC"
property_name = "IC50"
observed_value = "> 25 µM"

[[record]]
chemical_smiles = "COc1ccc(C(=O)NCCOc2ccc(-c3ccc4nc(C)c(-c5cnc(N)c(C(F)(F)F)c5)n4n3)cc2OC)cc1OC"
property_name = "IC50"
observed_value = "> 9.1 µM"

[[record]]
chemical_smiles = "COc1ccc(-c2ccc(-c3ccc4nc(C)c(-c5ccc(N6CCOCC6)nc5)n4n3)cc2)cc1"
property_name = "IC50"
observed_value = "> 25 µM"

[[record]]
chemical_smiles = "COc1cc(-c2ccc3nc(C)c(-c4cnc(N)c(C(F)(F)F)c4)n3n2)ccc1OCCNC(=O)c1cc(OC)c(OC)c(OC)c1"
property_name = "IC50"
observed_value = "> 9.1 µM"

[[record]]
chemical_smiles = "CCOc1ccc(-c2ccc3nc(C)c(-c4ccc(-c5ccc(C#N)nc5)nc4)n3n2)cc1OC"
property_name = "IC50"
observed_value = "> 25 µM"

